These data points were gathered from ChEMBL document CHEMBL1201862.

Let's go through some recorded GI50 values for HCT-15 together.

Lookup: What does the data say about its GI50? Entry: Cc1cc2oc(-c3ccccc3)c(C)c(=O)c2c2c1OC(C)(C)S2
Found: > 100 µM

Lookup: What does the data say about its GI50? Entry: Cc1ccc(CN2CCN(Cc3ccc(C)o3)C(C)C2)o1 (stereo not drawn)
Found: > 100 µM

Lookup: What does the data say about its GI50? Entry: CCCCCCCCCCCCCCCCCC(=O)OCC(COC1OC(CS(=O)(=O)O)C(O)C(O)C1O)OC(=O)CCCCCCCCCCCCCCCCC (stereo not drawn)
Found: > 100 µM

Lookup: What does the data say about its GI50? Entry: COC(=O)c1cc(Cl)ccc1NC(=O)C1CCCCC1
Found: > 100 µM

Lookup: What does the data say about its GI50? Entry: CCSC1=N/C(=C/c2ccccc2O)C(=O)N1
Found: > 100 µM

Lookup: What does the data say about its GI50? Entry: CCC(C)CC(C)CC(C)/C=C(\C)C1=C(C)CC(C)(O)O1 (stereo not drawn)
Found: > 100 µM

Lookup: What does the data say about its GI50? Entry: COc1cc2c(c(OC)c1)[C@H](C)N(Cc1ccccc1)C(C)C2 (stereo partly drawn)
Found: 28.6 µM

Lookup: What does the data say about its GI50? Entry: CC(C)c1cccc(C(C)C)c1NC(=O)CCC(=O)NN
Found: 18 µM

Lookup: What does the data say about its GI50? Entry: COCC1OC(OC2C3=C(C(C)C)CCC3(C)/C=C3\C(CCC3(O)COC)C(C)C2O)C(O)C2OC3OC12OC3(C)C1CO1 (stereo not drawn)
Found: 25.1 µM

Lookup: What does the data say about its GI50? Entry: CCC(CCCCC1CC[C@H]2CC(=O)C[C@@H]12)OC (stereo partly drawn)
Found: > 100 µM

Lookup: What does the data say about its GI50? Entry: CCCNC(=O)C1C(=O)C(=O)N(CCC)C1=O (stereo not drawn)
Found: > 100 µM

Lookup: What does the data say about its GI50? Entry: O=C1CC(Sc2nc3ccc(I)cc3c(=O)n2Cc2ccccc2)C(=O)NN1 (stereo not drawn)
Found: 15.5 µM

Lookup: What does the data say about its GI50? Entry: CC(C)/C(Cl)=N\OC(=O)Nc1cccc(Cl)c1
Found: 16.1 µM

Lookup: What does the data say about its GI50? Entry: O=[N+]([O-])C(=C(NCc1ccccc1)NCc1ccccc1)C(Cl)=C(Cl)Cl
Found: 23.3 µM

Lookup: What does the data say about its GI50? Entry: O=C1C(Cl)=C(Cl)C(=O)N1c1cccc(C(F)(F)F)c1
Found: > 100 µM

Lookup: What does the data say about its GI50? Entry: NC12Oc3cc(O)cc(O)c3C1(c1ccc(Cl)cc1)c1c(O)cc(O)cc1O2 (stereo not drawn)
Found: > 100 µM

Lookup: What does the data say about its GI50? Entry: O=C(/C=C\c1ccccc1-c1ccccc1)c1ccccc1
Found: > 100 µM

Lookup: What does the data say about its GI50? Entry: CCOC(=O)/C=C/c1nc(C#N)c(N)o1
Found: > 100 µM

Lookup: What does the data say about its GI50? Entry: O=C(O)c1ccc(Nc2nc3nn(Cc4ccccc4)cc3c(=O)s2)cc1
Found: > 100 µM

Lookup: What does the data say about its GI50? Entry: CC(C)(C)c1ccc(C(C)(C)C)c(N2C(=O)[C@@H]3[C@@H]4C=C[C@@H](C4)[C@]3(C)C2=O)c1
Found: 18.6 µM

Lookup: What does the data say about its GI50? Entry: CC1=NC(=N)N=C(C)C1/N=N/c1ccc2[nH]c(C)nc2c1 (stereo not drawn)
Found: > 100 µM

Lookup: What does the data say about its GI50? Entry: COc1ccc(/N=c2/oc3ccccc3cc2C(N)=O)cc1
Found: > 100 µM

Lookup: What does the data say about its GI50? Entry: CCCN1CN(C(C(=O)N[C@@H]2C(=O)N3C(C(=O)O)=C(C)CSC23)c2ccccc2)CSC1=S (stereo partly drawn)
Found: 42 µM

Lookup: What does the data say about its GI50? Entry: CC(=O)O[C@]12CCCCCC1C1(O)C(O)CCCCC12 (stereo partly drawn)
Found: > 100 µM

Lookup: What does the data say about its GI50? Entry: CC(=O)O[C@H]1[C@@H](OC2CCCC2(c2ccccc2)c2ccccc2)O[N+]([O-])=C[C@@H]1c1ccccc1 (stereo partly drawn)
Found: 4.75 µM

Lookup: What does the data say about its GI50? Entry: O=[N+]([O-])c1ccc(-c2cn(-c3ccc(Cl)cc3)cn2)cc1
Found: > 100 µM

Lookup: What does the data say about its GI50? Entry: O=[N+]([O-])c1cnc(N(CCO)CCO)s1
Found: > 100 µM

Lookup: What does the data say about its GI50? Entry: CCOC(=O)C(C)(C)Oc1ccc2c(-c3ccc(Cl)cc3)cc(=O)oc2c1
Found: > 100 µM

Lookup: What does the data say about its GI50? Entry: N#CC(C(=O)CCC(=O)Nc1cccc(C(F)(F)F)c1)c1ccc(Cl)cc1 (stereo not drawn)
Found: > 100 µM

Lookup: What does the data say about its GI50? Entry: CC1CC[C@@]2(OC1)OC1C[C@H]3[C@@H]4CC[C@H]5CC(OC6OC(CO)C(OC7OC(CO)C(O)C(O)C7O)C(O)C6O)CCC5(C)[C@H]4CCC3(C)C1[C@@H]2C (stereo partly drawn)
Found: 12.6 µM

Lookup: What does the data say about its GI50? Entry: O=C1CCC(NC(=O)c2ccccc2)C(=O)N1 (stereo not drawn)
Found: > 100 µM

Lookup: What does the data say about its GI50? Entry: CC(C)C(C/C=C1\CC(CO)(COC(=O)c2ccccc2)OC1=O)C(C)C (stereo not drawn)
Found: 21.6 µM

Lookup: What does the data say about its GI50? Entry: CN1COCc2cc3cc4c(cc3nc21)OCCO4
Found: > 100 µM

Lookup: What does the data say about its GI50? Entry: Cn1c2ccc(C3=NCCN3)cc2c2cc(C3=NCCN3)ccc21
Found: > 100 µM

Lookup: What does the data say about its GI50? Entry: C=CCOc1ccc(C(=N/NC(=O)c2ccccc2)/N=N/c2ccc(C)cc2)cc1OC
Found: 35.1 µM

Lookup: What does the data say about its GI50? Entry: CC12C(=O)N(CCN)C(=O)C1C1c3ccccc3C2c2ccccc21 (stereo not drawn)
Found: > 100 µM

Lookup: What does the data say about its GI50? Entry: C/C=C/[P+](c1ccccc1)(c1ccccc1)c1ccccc1
Found: 25.5 µM

Lookup: What does the data say about its GI50? Entry: COC(=O)C(Cc1c[nH]c2ccccc12)NP(=O)(O)OCC1OC(n2cc(F)c(=O)[nH]c2=O)CC1O (stereo not drawn)
Found: > 100 µM

* * *

# Test system: CCRF-CEM
# method: NCI tumour cell line growth inhibition, 48 h
The source made the active and inactive calls. Rule as the data show it: active = GI50 up to about 1.1 µM and inactive = higher.
Hi there, I'd appreciate the recorded GI50 for every entry that follows.

Lookup: Observed GI50 on CCRF-CEM for O=CNCCCN1CCN(CCCNC=O)CC1 , please.
Found: > 100 µM (inactive)

Lookup: Observed GI50 on CCRF-CEM for C=C1C(=O)O[C@@H]2/C=C(/C)[C@@H](OC(C)=O)C[C@@H](O)/C(C)=C\[C@@H](OC(=O)[C@]3(C)O[C@@H]3C)[C@@H]12 , please.
Found: 2.38 µM (inactive)

Lookup: Observed GI50 on CCRF-CEM for CC[C@@H]1OC2(C)CC(S(=O)(=O)c3ccccc3)CC1O2 (some centres undefined) , please.
Found: > 100 µM (inactive)

Lookup: Observed GI50 on CCRF-CEM for O=C(O)COc1ccc(C(=O)/C(SS/C(C(=O)c2ccc(OCC(=O)O)c(Cl)c2Cl)=C2\C=C(c3ccccc3Cl)SS2)=C2/C=C(c3ccccc3Cl)SS2)c(Cl)c1Cl , please.
Found: 13 µM (inactive)

Lookup: Observed GI50 on CCRF-CEM for O=[N+]([O-])c1ccc(-c2cn(-c3ccc(Cl)cc3)cn2)cc1 , please.
Found: > 100 µM (inactive)

Lookup: Observed GI50 on CCRF-CEM for Clc1c(C(Cl)(Cl)Cl)nsc1N1CCCCC1 , please.
Found: 16.5 µM (inactive)

Lookup: Observed GI50 on CCRF-CEM for O=C1c2ccccc2CC12Cc1cc3c(cc1C2)CCC3 , please.
Found: 55.3 µM (inactive)

Lookup: Observed GI50 on CCRF-CEM for Cc1c(C(=O)/C=C/c2ccc3c(c2)OCO3)[n+]([O-])c2ccccc2[n+]1[O-] , please.
Found: 32.9 µM (inactive)

Lookup: Observed GI50 on CCRF-CEM for CC(C)/C(Cl)=N\OC(=O)Nc1cccc(Cl)c1 , please.
Found: 1.67 µM (inactive)

* * *

# System: LOX IMVI
# method: NCI tumour cell line growth inhibition, 48 h
The source made the active and inactive calls. Rule as the data show it: active = GI50 up to about 1.1 µM and inactive = higher. Starred links: 1 amine or outer side, 2 acyl side, 3 side chain; linkers in the order of their positions; H or OH if unused. Positions of bridges follow the written chain, without caps; N, C: chain ends. Non-standard residues stand in square brackets, D forms with d. Residues, ends and D or L forms follow the SMILES beside them. Chains are numbered I, II in the order given. Actinocin(9to1) = Cc1c2oc3c(C)ccc(C(=O)[*:1])c3nc-2c(C(=O)[*:2])c(N)c1=O; NMeV = CN[CH](C(=O)O)C(C)C; Sar = CNCC(=O)O
Thanks in advance; please answer with one of these: active, inactive

Lookup: Recorded test call requested for Cn1c(CO)ccc1-c1ccc(-c2ccc(CO)[se]2)[se]1
Found: inactive

Lookup: Recorded test call requested for CCOc1ccccc1-c1nc2c(s1)C(=O)c1ccccc1C2=O
Found: inactive

Lookup: Recorded test call requested for O=C(NO)C(=O)Nc1ccc(Cl)cc1[N+](=O)[O-]
Found: inactive

Lookup: Recorded test call requested for Cc1c2oc3c(C)ccc(C(=O)NC4C(=O)NC(Cc5ccc(O)cc5)C(=O)N5CCCC5C(=O)N(C)CC(=O)N(C)C(C(C)C)C(=O)OC4C)c3nc-2c(C(=O)NC2C(=O)NC(Cc3ccc(O)cc3)C(=O)N3CCCC3C(=O)N(C)CC(=O)N(C)C(C(C)C)C(=O)OC2C)c(N)c1=O (stereo not drawn) (I: TYP[Sar][NMeV] / II: TYP[Sar][NMeV]; ester I:1-I:C, II:1-II:C; linker I:N-II:N via Actinocin(9to1); configuration not given here)
Found: active

Lookup: Recorded test call requested for CC(=O)/C=C/C1=C(C)CCCC1(C)CC(C)C (stereo not drawn)
Found: inactive

Lookup: Recorded test call requested for NC(=O)c1ccc(N)nc1 [6-AMINONICOTINAMIDE]
Found: inactive

Lookup: Recorded test call requested for CC1CC/C(=C\c2ccc(F)cc2)C2=C1C(c1ccc(F)cc1)NC(=S)N2 (stereo not drawn)
Found: inactive

Lookup: Recorded test call requested for CCC(C(=O)c1ccc(OC)c(OC)c1)N(C(=O)C(F)(F)F)C(C)c1ccccc1 (stereo not drawn)
Found: inactive

Lookup: Recorded test call requested for CC1=NC(=N)N=C(C)C1/N=N/c1ccc2[nH]c(C)nc2c1 (stereo not drawn)
Found: inactive

Lookup: Recorded test call requested for CN(/N=C/c1ccccc1C(=O)O)C1=NCCCCN1
Found: inactive

Lookup: Recorded test call requested for Cc1nc2cc(/N=N/c3c(O)ccc4ccccc34)ccc2[nH]1
Found: inactive

Lookup: Recorded test call requested for Cc1ccccc1C(=O)N/N=C/c1ccc(Sc2nccn2C)c([N+](=O)[O-])c1
Found: inactive

Lookup: Recorded test call requested for CC(=O)OC(C)(C)/C=C/C(=O)[C@](C)(O)[C@H]1[C@H](O)C[C@@]2(C)[C@@H]3CC=C4[C@@H](C=C(O)C(=O)C4(C)C)[C@]3(C)C(=O)C[C@]12C
Found: active

Lookup: Recorded test call requested for COC1=C(C(=O)OC(C)(C)C)[C@]2(C)C(C(=O)OC(C)(C)C)C(OC)=C(C(=O)OC(C)(C)C)[C@]2(C)C1C(=O)OC(C)(C)C (stereo partly drawn)
Found: inactive

Lookup: Recorded test call requested for CCOC(=O)C(C)(C)Oc1ccc2c(-c3ccc(Cl)cc3)cc(=O)oc2c1
Found: inactive

Lookup: Recorded test call requested for C=C1C(=O)O[C@H]2C/C(C=O)=C\[C@H]3O[C@H]3/C(COC(=O)C(C)C)=C/CC12 (stereo partly drawn)
Found: inactive

Lookup: Recorded test call requested for C/C(=N\NC(=S)N1CCN(C2CCCCCC2)CC1)c1ccccn1
Found: active

Lookup: Recorded test call requested for COc1ccc(CC(C#N)c2cc(OC)c(OC)c(OC)c2)cc1 (stereo not drawn)
Found: active

Lookup: Recorded test call requested for CC(C)(C)Sc1nnc(SC(C)(C)C)c2c(SC(C)(C)C)nnc(O)c12
Found: inactive

Lookup: Recorded test call requested for N#CC1=C(N)N2C(=O)/C(=C/c3ccccc3O)N=C2S1
Found: inactive

Lookup: Recorded test call requested for O=C1CC2(CCN(CC3COc4ccccc4O3)CC2)C(=O)N1N1CCCCCC1 (stereo not drawn)
Found: inactive

Lookup: Recorded test call requested for O=C(Nc1ccc(Cl)cc1)c1cc(S(=O)(=O)Nc2n[nH]c(=O)[nH]2)c(SSc2cc(Cl)c(C(=O)Nc3ccc(Cl)cc3)cc2S(=O)(=O)Nc2n[nH]c(=O)[nH]2)cc1Cl
Found: inactive

Lookup: Recorded test call requested for O=CNCCCN1CCN(CCCNC=O)CC1
Found: inactive

Lookup: Recorded test call requested for NC1=Nc2cc(C(F)(F)F)ccc2Sc2nc3ccccc3n21
Found: inactive

Lookup: Recorded test call requested for CCCCOC(=O)/C(CC(=O)C=C(C)C)=N\NS(=O)(=O)c1ccc(C)cc1
Found: inactive

Lookup: Recorded test call requested for NC(=O)c1ccc[n+](C2=C([N-]S(=O)(=O)c3ccccc3)C(=O)c3ccccc3C2=O)c1
Found: inactive

Lookup: Recorded test call requested for CCOP(=O)(O)CN1CCNCCN(CP(=O)(O)OCC)CCNCC1
Found: inactive

Lookup: Recorded test call requested for COC(=O)C1C(C(=O)OC)N(Cc2ccccc2)C(=O)N1Cc1ccccc1 (stereo not drawn)
Found: inactive
